Biological target: CRBN (Homo sapiens, UniProt Q96SW2)
Construct: endogenous in cells
Assay: Cellular CRBN engagement assay (competition with dBET6, BRD4BD2-eGFP reporter)
Conditions: competition with 100 nM dBET6, 5 h, Flp-In 293 cells expressing BRD4BD2-eGFP and mCherry; FIG. 1
pIC50: −log10 of the molar value.
measured-quantity: pIC50

CCN(CCNc1cccc2c1C(=O)N(C1CCC(=O)NC1=O)C2=O)C[C@@H](C)NC(=O)c1ccc(-c2noc(C(F)(F)F)n2)cc1 (some centres unmarked) ... 5.16
O=C1CCC(N2C(=O)c3cccc(NCCCCCCN4CCC(CNC(=O)c5cccc(-c6noc(C(F)(F)F)n6)c5)(c5nc(-c6ccccc6)cs5)CC4)c3C2=O)C(=O)N1 (centres unmarked) ... 6.85
